tested_system: T1, eIF4E (residues 69–248) II-AA, purified (Drosophila melanogaster, UniProt P48598-2 69-248, Ile96 to Ala (II-AA) | Ile112 to Ala (II-AA))
T1 construct: eIF4E, Drosophila melanogaster, residues 69–248; also called eIF4E (II-AA); not shown: His6, N-terminal, cleaved
T1 sequence (looked up): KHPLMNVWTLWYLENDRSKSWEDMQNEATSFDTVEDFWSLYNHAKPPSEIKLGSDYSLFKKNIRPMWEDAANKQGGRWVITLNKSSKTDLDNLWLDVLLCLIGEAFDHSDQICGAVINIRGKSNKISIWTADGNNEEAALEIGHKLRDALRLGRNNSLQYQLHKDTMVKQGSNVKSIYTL
experimental_protocol: ITC; VP-ITC, 20 °C; eIF4E (69–248, WT or mutant, 1–20 μM) in the cell, tenfold concentrated GB1-stabilized peptides titrated in; 20 mM Na-phosphate pH 7.0, 150 mM NaCl; one-site binding model
measurement_context: both partners purified
I'd be grateful if you could share measured stoichiometry N for these entries.
Would you mind answering with just the numeric figure?

Task item: What does the record list as stoichiometry N for RYSKVDLLALRYEGKSRQRPQCSTRLELQTLGFWKI (domain or fragment) [4E-T C+NC peptide fused C-terminally to GB1] ?
Reply: 1.03

Task item: Requested read-out: stoichiometry N. Entry: CUP C+NC peptide fused C-terminally to GB1 (domain or fragment, Drosophila melanogaster, CUP, Drosophila melanogaster, canonical and non-canonical 4E-BMs; source: E. coli BL21 Star (DE3), purified (amylose, HRV3C cleavage, SEC); not shown: MBP, N-terminal, cleaved; GB1, C-terminal, kept) STGIHKPGSLRAPKAVRPTTAPVVSSKPVKSYTRSRLMDIRNGMFNALMHRSKESFVMPRIATCDDIELEGRLRRMNIWRTSDGTRFRTRSTTANLNMNNNNNNECMPAFFKNKNKPNLISDESIIQSQP
Reply: 0.98

Task item: Look up stoichiometry N: TKLIYERAFMKNLRGSPLSQTPPSNVPSCLLRGT (domain or fragment) [Thor C+NC peptide fused C-terminally to GB1]
Reply: 0.97
